Exercise: for every item that follows, state its recorded IC50.
system: Plasmodium falciparum; test: Antimalarial activity against chloroquine ane quinine-sensitive ring stage of Plasmodium falciparum assessed as inhibition of parasite growth after 48 hrs; format: functional, organism-based
Don't forget the unit after the number, please.

Lab note: COc1ccc(N2N=C(c3ccc(F)cc3)CC2c2c(C)nn(-c3ccccc3)c2Oc2ccc(F)cc2)cc1 (stereo not drawn) gave IC50 of 0.25 µg/mL

Lab note: Cc1nn(-c2ccccc2)c(Oc2ccc(F)cc2)c1C1CC(c2ccc(F)cc2)=NN1c1ccc(Br)cc1 (stereo not drawn) gave IC50 of 0.025 µg/mL

Lab note: Cc1nn(-c2ccccc2)c(Oc2ccccc2F)c1C1CC(c2ccc(F)cc2)=NN1c1ccc(F)cc1 (stereo not drawn) gave IC50 of 0.025 µg/mL

====

system: Plasmodium falciparum; experiment: Antimalarial activity against chloroquine ane quinine-sensitive ring stage of Plasmodium falciparum assessed as inhibition of parasite growth after 48 hrs; assay type: functional, organism-based
Flag rule - IC50 less than 0.3 µg/mL flags T; the remaining entries get F.

Query: Hello, I'm reviewing records and need to know if IC50 of Cc1nn(-c2ccccc2)c(Oc2cccc(C(F)(F)F)c2)c1C1CC(c2ccc(F)cc2)=NN1c1ccc(Br)cc1 (stereo not drawn) is below 0.3 µg/mL. Could you check?
Response: F

Query: Hello, I'm reviewing records and need to know if IC50 of Cc1nn(-c2ccccc2)c(Oc2ccc(F)cc2)c1C1CC(c2ccc(F)cc2)=NN1c1ccc(F)cc1 (stereo not drawn) is below 0.3 µg/mL. Could you check?
Response: T

Query: Hello, I'm reviewing records and need to know if IC50 of Cc1nn(-c2ccccc2)c(Oc2cccc(F)c2)c1C1CC(c2ccc(F)cc2)=NN1c1ccc(Br)cc1 (stereo not drawn) is below 0.3 µg/mL. Could you check?
Response: T

Query: Hello, I'm reviewing records and need to know if IC50 of Cc1nn(-c2ccccc2)c(Oc2ccccc2F)c1C1CC(c2ccc(F)cc2)=NN1c1ccc(Br)cc1 (stereo not drawn) is below 0.3 µg/mL. Could you check?
Response: T

Query: Hello, I'm reviewing records and need to know if IC50 of COc1ccc(N2N=C(c3ccc(F)cc3)CC2c2c(C)nn(-c3ccccc3)c2Oc2ccccc2F)cc1 (stereo not drawn) is below 0.3 µg/mL. Could you check?
Response: F

Query: Hello, I'm reviewing records and need to know if IC50 of COc1ccc(N2N=C(c3ccc(F)cc3)CC2c2c(C)nn(-c3ccccc3)c2Oc2cccc(F)c2)cc1 (stereo not drawn) is below 0.3 µg/mL. Could you check?
Response: F

Query: Hello, I'm reviewing records and need to know if IC50 of C=C[C@H]1CN2CC[C@H]1C[C@H]2[C@H](O)c1ccnc2ccc(OC)cc12 [QUININE] is below 0.3 µg/mL. Could you check?
Response: T
